# Test system: SK-MEL-2 melanoma
# PROCEDURE TEXT: NCI-60 one-dose screen, 48 h (100 = growth as untreated, 0 = no growth, -100 = all killed)
# EXPERIMENTAL SETUP: 10 µM unless noted
About 83,000 compounds went through this panel and 20% of them were active in at least one assay; those are over-represented in the sample as a whole.
REPORTED METRIC: growth (%)
Lab book: enter the figure in %, no units written.

Ask: Param readout= growth; system= SK-MEL-2 melanoma; entry= CCN1C(=O)N(CC)C2NNC(Sc3c(C(=O)O)c4ccccc4n(CCC(C)C)c3=O)=NC21 (configuration not stated) ; returns value.
Result: 22.3

Ask: Param readout= growth; system= SK-MEL-2 melanoma; entry= "COc1ccc2[nH]c(=O)cc(-n3ncc(C(=O)/C=C/c4cc(OC)c(OC)c(OC)c4)c3C)c2c1" ; returns value.
Result: -28.3

Ask: Param readout= growth; system= SK-MEL-2 melanoma; entry= "COc1ccc(N=Nc2c(N)nn3c(-c4ccc(F)cc4)ccnc23)cc1" ; returns value.
Result: 102

Ask: Param readout= growth; system= SK-MEL-2 melanoma; entry= O=S(=O)(c1nc(-c2ccc(Br)cc2)oc1-c1ccc(Cl)cc1)N1CCCC(O)C1 (configuration not stated) ; returns value.
Result: 65.2

New cases:
Ask: Param readout= growth; system= SK-MEL-2 melanoma; entry= "C=CC[n+]1cccc2c3ccccc3ccc21" ; returns value.
Result: 63.3

Ask: Param readout= growth; system= SK-MEL-2 melanoma; entry= "Cc1ccc(C(=O)Nc2cccc(C(=O)NC(=S)Nc3ccc(S(N)(=O)=O)cc3)c2)cc1" ; returns value.
Result: 82.7

* * *

# Test system: HCC-2998 colon
# PROCEDURE TEXT: NCI-60 one-dose screen, 48 h (100 = growth as untreated, 0 = no growth, -100 = all killed)
# EXPERIMENTAL SETUP: 10 µM unless noted
Compounds without any hit were thinned out: in the full panel of roughly 83,000, 20% have a hit.
Recorded growth by entry
Lab book: enter the figure in %, no units written.

Example molecules with recorded growth:
Ask: Param readout= growth; system= HCC-2998 colon; entry= "Cc1cn(-c2cc(NC(=O)c3ccc(C)c(-n4cc(-c5cnc6cccnn56)nn4)c3)cc(C(F)(F)F)c2)cn1" ; returns value.
Result: 82.2

Ask: Param readout= growth; system= HCC-2998 colon; entry= "O=C(Nc1ccc(-c2ccc3c(c2)NC(=O)/C3=C\c2ccc[nH]2)cc1)Nc1ccc(Cl)c(Cl)c1" ; returns value.
Result: 83.5

Please find the next molecule below.
Ask: Param readout= growth; system= HCC-2998 colon; entry= "Cc1ccc(C(=O)Nc2cc(-n3ccnc3)cc(C(F)(F)F)c2)cc1-n1cc(-c2cnc3cccnn23)nn1" ; returns value.
Result: 86.3

* * *

# System: M14 melanoma
# PROCEDURE TEXT: NCI-60 one-dose screen, 48 h
# EXPERIMENTAL SETUP: 10 µM unless noted
# Method: Growth inhibition of the M14 human tumor cell line is measured as a screen for anti-cancer activity. Cells are grown in 96 well plates and exposed to the test compound for 48 hours. Compounds are tested at a single concentration, which is 10^-5 M for most compounds. The reported endpoint is percent growth (GI% or GIPRCNT), where numbers from 0 - 100% represent growth inhibition, and numbers from -100% - 0 represent cell death. For example, a value of 40 represents 60% growth inhibition. […]
About 83,000 compounds went through this panel and 20% of them were active in at least one assay; those are over-represented in the sample as a whole. The source made the active and inactive calls. Rule for the calls: active = growth percent below 10; inactive = the rest.
The categories you may choose from are TRUE = active, FALSE = inactive

Examples with answers:
Ask: Which outcome did this test record for the compound CC(C)(C)C(=O)C1CC(C#N)=C2C=Cc3c(ccc4ccccc34)N21 (centres undefined) ?
Result: FALSE

Ask: Which outcome did this test record for the compound "O=C(NN1C(=O)/C(=C/C=C/c2ccc([N+](=O)[O-])o2)SC1=S)c1ccc(O)cc1" ?
Result: TRUE

Ask: Which outcome did this test record for the compound CC1=C(C(=O)OCc2ccccc2)C(c2ccc(N(C)C)cc2)n2c(nc3ccccc32)N1 (centres undefined) ?
Result: FALSE

Ask: Which outcome did this test record for the compound "Cn1cc(-c2cc(N)n3nc(-c4c[nH]c5ccccc45)cc3n2)c2ccccc21" ?
Result: TRUE

Turning now to a further record.
Ask: Which outcome did this test record for the compound Cc1cc(C(NC(=O)C2CC3(CC(Nc4cccc5c4C(=O)N(C4CCC(=O)NC4=O)C5=O)C3)C2)c2ccc3c(c2)OC(F)(F)O3)c(O)c2ncccc12 (centres undefined) ?
Result: TRUE

* * *

Recorded growth by entry
# Test system: NCI-H460 lung
# PROCEDURE TEXT: NCI-60 one-dose screen, 48 h (100 = growth as untreated, 0 = no growth, -100 = all killed)
# EXPERIMENTAL SETUP: 10 µM unless noted
About 83,000 compounds went through this panel and 20% of them were active in at least one assay; those are over-represented in the sample as a whole.
Lab book: enter the figure in %, no units written.

Ask: Quick one: growth of "Cn1cc(-c2cc(N)n3nc(-c4c[nH]c5ccc(F)cc45)cc3n2)c2cccnc21" ?
Result: -50.6

Ask: Quick one: growth of CCOC(=O)/C(F)=C/C1CC1CCc1ccc(OCC)cc1 (stereo not given) ?
Result: 59.2

Ask: Quick one: growth of CNS(=O)(=O)N1CCc2c(Br)c3c(c(OC)c2C1CCc1ccccc1)OCO3 (stereo not given) ?
Result: -67.7

Ask: Quick one: growth of "O=C(CSc1nc2sc3c(c2c(=O)n1-c1ccc(Cl)cc1)CCCC3)N/N=C/C=C/c1ccccc1" ?
Result: -16.9

Please find the next compound below.
Ask: Quick one: growth of "CC(C)C[C@H](NC(=O)CNC(=O)C[C@H]1O[C@@H]2OC3(C)CC[C@H]4[C@H](C)CC[C@@H]([C@H]1C)[C@@]24O3)B(O)O" ?
Result: 9.47

* * *

# Tested on: SR leukemia
# PROCEDURE TEXT: NCI-60 one-dose screen, 48 h
# EXPERIMENTAL SETUP: 10 µM unless noted
About 83,000 compounds went through this panel and 20% of them were active in at least one assay; those are over-represented in the sample as a whole. Activity calls are given as the source filed them. How the source made its calls: active means growth percent below 10; inactive means the rest.
The categories you may choose from are true = active, false = inactive

Ask: Which outcome did this test record for the molecule "Nc1nn2c(-c3cc4cc(Br)ccc4oc3=O)ccnc2c1N=Nc1ccc(Br)cc1" ?
Result: false

Ask: Which outcome did this test record for the molecule "CC1=C(C)C(=O)C(N2CCSCC2)=CC1=O" ?
Result: false

* * *

# Tested on: ACHN renal
# PROCEDURE TEXT: NCI-60 one-dose screen, 48 h (100 = growth as untreated, 0 = no growth, -100 = all killed)
# EXPERIMENTAL SETUP: 10 µM unless noted
Compounds without any hit were thinned out: in the full panel of roughly 83,000, 20% have a hit. Activity calls are given as the source filed them. Rule for the calls: active = growth percent below 10; inactive = the rest.
Recorded growth by entry

Example compounds with recorded growth:
Ask: Param readout= growth; system= ACHN renal; entry= CCOc1ccccc1[C@H]1C(C(=O)c2ccc(Cl)cc2)C2(N[C@@H]1c1ccccc1)C(=O)Nc1ccc(Br)cc12 (stereo partly specified) ; returns value.
Result: 1.27% (active)

Ask: Param readout= growth; system= ACHN renal; entry= "C[C@@H]1[C@H]2C[C@@H](C[C@H]1NCc1nc3ccccc3n1C1CCCCCC1)C2(C)C" ; returns value.
Result: 59.5% (inactive)

Ask: Param readout= growth; system= ACHN renal; entry= "N#Cc1cc(-c2ccc3ncnc(N4CCc5cc(F)c(Cl)cc54)c3c2)cnc1N" ; returns value.
Result: 26.6% (inactive)

Ask: Param readout= growth; system= ACHN renal; entry= "Cc1ccc(C(C)C)cc1Oc1cccc(-c2c(-c3ccc(C(F)(F)F)cc3)ncn2C2CCNCC2)n1" ; returns value.
Result: -100% (active)

Ask: Param readout= growth; system= ACHN renal; entry= "Nc1nn2c(-c3cc4cc(Br)ccc4oc3=O)ccnc2c1N=Nc1ccccc1" ; returns value.
Result: 0.225% (active)

New cases:
Ask: Param readout= growth; system= ACHN renal; entry= Oc1ccc(Cl)c(Nc2nc(SCCN3CCOCC3)nc3c2cnn3CC(Cl)c2ccc(Br)cc2)c1 (stereo unspecified) ; returns value.
Result: 12.9% (inactive)

Ask: Param readout= growth; system= ACHN renal; entry= "CCCCC[C@@H]1C/C=C(\C)[C@@H](O)C(C)(C)C(=O)[C@@H](C)/C=C(\C)[C@@H]2C[C@H](O)C[C@](O)(CC(=O)O1)O2" ; returns value.
Result: 19.7% (inactive)

Ask: Param readout= growth; system= ACHN renal; entry= "CC(=O)c1ccc2c(N)c(C(=O)Nc3ccc(C(F)(F)F)cc3)sc2n1" ; returns value.
Result: 66.2% (inactive)

Ask: Param readout= growth; system= ACHN renal; entry= CN(C)c1nc(NCCNS(=O)(=O)c2ccc(C3=Nc4c(N)nc(N)nc4NC(c4ccc(C(F)(F)F)cc4)C3)cc2)nc(N2CCOCC2)n1 (stereo unspecified) ; returns value.
Result: 77.3% (inactive)

Ask: Param readout= growth; system= ACHN renal; entry= "O=CNc1ccc(-n2cnc3cc(-c4ccc(O)cc4)ccc32)cc1" ; returns value.
Result: 65.4% (inactive)

Ask: Param readout= growth; system= ACHN renal; entry= "COc1cc(CNC(=O)C[C@H](C)CCC=C(C)C)ccc1OCc1cn(-c2ccc(Cl)cc2Cl)nn1" ; returns value.
Result: 61.1% (inactive)
